Tested on: CD2F1 mice, L1210 leukemia ip, survival T/C
ASSAY_TEXT: NCI In Vivo Anticancer Drug Screen. Data for tumor model L1210 Leukemia (intraperitoneal) in CD2F1 (CDF1) mice
CONDITION: endpoint: mean survival time; dose: 400.0 mg/kg/injection; schedule: Q04DX003 (ip); vehicle: saline with Tween-80; higher = longer survival
Inconclusive results and toxic doses are left out.
MEASUREMENT_NAME: T/C

MOLECULE	T/C
CC(CC(C)(C)C)O[Si](C)C1(C)CCCCC1 (configuration not stated)	106 % of control
Cc1cc(O)c(C(C)C)cc1N=O	106 % of control
CC12CCC(O1)C1C(=O)NC(=O)C12 (configuration not stated)	98 % of control

Query: Supply reported T/C belonging to this molecule: CCC(C)CC(=O)Nc1cccc(O)c1 (configuration not stated)
Response: 91 % of control

Query: Supply reported T/C belonging to this molecule: "Cc1ccc2[nH]c(-c3ccccc3)c(-c3ccccc3)c2c1"
Response: 96 % of control

Query: Supply reported T/C belonging to this molecule: "O=C(O)c1ccccc1NCc1ccccc1"
Response: 87 % of control

Query: Supply reported T/C belonging to this molecule: "O=C(NC1CCCCC1)NC1CCCCC1"
Response: 93 % of control

----------
Tested on: CD2F1 mice, L1210 leukemia ip, survival T/C
ASSAY_TEXT: NCI In Vivo Anticancer Drug Screen. Data for tumor model L1210 Leukemia (intraperitoneal) in CD2F1 (CDF1) mice
CONDITION: endpoint: mean survival time; dose: 12.5 mg/kg/injection; schedule: Q01DX001 (ip); vehicle: saline with Tween-80; higher = longer survival
Toxic doses and inconclusive results are not listed.
Below, each of the molecules is paired with its reported T/C value.

// solved cases for T/C follow
O=C(CC(Cl)(C(F)(F)F)C(F)(F)F)c1cccc([N+](=O)[O-])c1 103 % of control
C[C@@H](C[P+](c1ccccc1)(c1ccccc1)c1ccccc1)[C@](OC(=O)c1ccccc1)(C(=O)c1ccccc1)c1ccccc1 105 % of control
O=C(/C=C/C(=O)c1ccccc1)c1ccccc1 107 % of control

Query: Supply reported T/C belonging to this molecule: "NC(N)=N/N=C/c1ccc(-c2ccccc2)cc1"
Response: 109 % of control

----------
System: CD2F1 mice, L1210 leukemia ip, survival T/C
ASSAY_TEXT: NCI In Vivo Anticancer Drug Screen. Data for tumor model L1210 Leukemia (intraperitoneal) in CD2F1 (CDF1) mice
CONDITION: endpoint: mean survival time; dose: 400.0 mg/kg/injection; schedule: Q04DX003 (ip); vehicle: saline with Tween-80; higher = longer survival
Inconclusive results and toxic doses are left out.
Below, each of the compounds is paired with its reported T/C value.

// solved cases for T/C follow
Cc1ccc(-c2cc(-c3ccccc3)n(-c3ccccc3)n2)cc1 95 % of control
CC(=O)NC(C)(C)C 104 % of control
O=C(COc1ccc(Cl)c(Cl)c1)Nc1ccc(C(=O)CCl)cc1 114 % of control
CC(=O)CCCCOC(C)=O 98 % of control
c1cc(Oc2ccc3ccncc3c2)c2ccncc2c1 101 % of control

Query: Supply reported T/C belonging to this compound: "OCc1c(Cl)c(Cl)c(CO)c(Cl)c1Cl"
Response: 96 % of control

Query: Supply reported T/C belonging to this compound: "Cc1ccc(-n2c(O)c(C=N)c(=O)n(-c3ccc(C)cc3)c2=O)cc1"
Response: 97 % of control

----------
Test system: CD2F1 mice, L1210 leukemia ip, survival T/C
ASSAY_TEXT: NCI In Vivo Anticancer Drug Screen. Data for tumor model L1210 Leukemia (intraperitoneal) in CD2F1 (CDF1) mice
CONDITION: endpoint: mean survival time; dose: 200.0 mg/kg/injection; schedule: Q01DX001 (ip); vehicle: saline with Tween-80; higher = longer survival
Inconclusive results and toxic doses are left out.
MEASUREMENT_NAME: T/C

// solved cases for T/C follow
COMPOUND	TARGET_SYSTEM	T/C
CCCCSc1ncn(C)c1[N+](=O)[O-]	CD2F1 mice, L1210 leukemia ip, survival T/C	101 % of control
CSc1ccccc1C1=CCCCCC1	CD2F1 mice, L1210 leukemia ip, survival T/C	94 % of control
CC1=CCCN(CCc2c[nH]c3ccccc23)C1	CD2F1 mice, L1210 leukemia ip, survival T/C	90 % of control
CCCCP(=O)(O)O	CD2F1 mice, L1210 leukemia ip, survival T/C	100 % of control
CC(=O)Nc1ccc2c(c1)CCC2=O	CD2F1 mice, L1210 leukemia ip, survival T/C	95 % of control

Query: Supply reported T/C belonging to this compound: "O=C(Cl)N(c1ccccc1)c1ccccc1"
Response: 100 % of control

Query: Supply reported T/C belonging to this compound: "N=C(N)c1ccc(OCCCOc2ccc(NC(=O)Nc3ccc(S(=O)(=O)F)cc3)cc2)cc1"
Response: 93 % of control

Query: Supply reported T/C belonging to this compound: "c1ccc(-c2cc(-c3cc(-c4ccccc4)on3)no2)cc1"
Response: 100 % of control

Query: Supply reported T/C belonging to this compound: CCCCCCCCCCCCCCCCCCC(C)C1CCCCC1 (stereo unspecified)
Response: 107 % of control

Query: Supply reported T/C belonging to this compound: O=C1C(Br)=CC2C1C1C=CC2(Br)C1=O (stereo unspecified)
Response: 101 % of control

Query: Supply reported T/C belonging to this compound: "O=c1[nH]c(-c2ccccc2)c(N=Nc2ccccc2)c(=O)[nH]1"
Response: 96 % of control

Query: Supply reported T/C belonging to this compound: "O=C(Cc1ccc([N+](=O)[O-])cc1)Nc1ccc(O)cc1"
Response: 104 % of control

Query: Supply reported T/C belonging to this compound: "CCOc1cccc(Cc2cn(Cc3ccc(NC(=O)c4ccc(S(=O)(=O)F)cc4)cc3)c(=O)[nH]c2=O)c1"
Response: 95 % of control

Query: Supply reported T/C belonging to this compound: NC(=O)C1CC1c1ccccc1 (stereo unspecified)
Response: 102 % of control

Query: Supply reported T/C belonging to this compound: "COc1ccc(CCNC(=O)Cc2ccc3c(c2)OCO3)cc1OC"
Response: 93 % of control

----------
System: CD2F1 mice, L1210 leukemia ip, survival T/C
ASSAY_TEXT: NCI In Vivo Anticancer Drug Screen. Data for tumor model L1210 Leukemia (intraperitoneal) in CD2F1 (CDF1) mice
CONDITION: endpoint: mean survival time; dose: 100.0 mg/kg/injection; schedule: Q01DX001 (ip); vehicle: saline with Tween-80; higher = longer survival
Toxic doses and inconclusive results are not listed.
MEASUREMENT_NAME: T/C

COMPOUND	T/C
CCCCCCCCCCCCCCCC[N+]1(CCC)CCSCC1	102 % of control
O=[N+]([O-])c1cc(Br)cc(Br)c1[N+](=O)[O-]	97 % of control
O=C(Cl)N(c1ccccc1)c1ccccc1	91 % of control
Nc1ccc(OCC(=O)O)cc1	101 % of control
C=C(Br)CNC(=O)C(O)(c1ccccc1)c1ccccc1	103 % of control

Query: Supply reported T/C belonging to this compound: "CN(C)C=Nc1cccc2[nH]c3ccccc3c12"
Response: 92 % of control

Query: Supply reported T/C belonging to this compound: "Oc1ccc(-c2nc3ccccc3s2)cc1"
Response: 91 % of control

Query: Supply reported T/C belonging to this compound: CCOC(=O)C(C)CN(CC(C)C(=O)OCC)C(C)(C)C (configuration not stated)
Response: 112 % of control

Query: Supply reported T/C belonging to this compound: "Cc1nc(N)[nH]c(=O)c1NC(=O)c1ccccc1N"
Response: 94 % of control

Query: Supply reported T/C belonging to this compound: "O=c1[nH]c(-c2ccccc2)c(N=Nc2ccccc2)c(=O)[nH]1"
Response: 89 % of control

Query: Supply reported T/C belonging to this compound: "c1ccc(-c2cc(-c3cc(-c4ccccc4)on3)no2)cc1"
Response: 101 % of control

Query: Supply reported T/C belonging to this compound: "Cc1c(Cl)c(Cl)c(Cl)c(I)c1Cl"
Response: 97 % of control

Query: Supply reported T/C belonging to this compound: "ClC(Cl)(Cl)c1ccc(C(SCc2ccccc2)SCc2ccccc2)cc1"
Response: 89 % of control

----------
System: CD2F1 mice, L1210 leukemia ip, survival T/C
ASSAY_TEXT: NCI In Vivo Anticancer Drug Screen. Data for tumor model L1210 Leukemia (intraperitoneal) in CD2F1 (CDF1) mice
CONDITION: endpoint: median survival time; dose: 50.0 mg/kg/injection; schedule: Q04DX003 (ip); vehicle: saline with Tween-80; higher = longer survival
Protocol: The antitumor activity of compounds was measured in mice bearing transplantable tumors. Survival or tumor size were measured and the results are expressed as the measurement made in the treated group (T) divided by the measurement made in the vehicle treated control group (C). The tumor model used in this assay is L1210 Leukemia (intraperitoneal) in CD2F1 (CDF1) mice
Toxic doses and inconclusive results are not listed.
Below, each of the molecules is paired with its reported T/C value.

// solved cases for T/C follow
MOLECULE	MEASUREMENT_NAME	OBSERVED_RESULT
CCOC(=O)/C(=C/[N-]c1ccccc1[N-]/C=C(\C(C)=O)C(=O)OCC)C(C)=O.[Pt+2]	T/C	96 % of control
O=C1CC(C(=O)O)C2(CCCCCC2)O1 (centres undefined)	T/C	100 % of control
BrCc1cccc2cccnc12	T/C	88 % of control

Now take the following molecule into account.
Query: Supply reported T/C belonging to this molecule: "CC(C)NCC(O)c1ccc(O)c(O)c1.[Pt].c1ccc([PH+](c2ccccc2)c2ccccc2)cc1.c1ccc([PH+](c2ccccc2)c2ccccc2)cc1"
Response: 101 % of control
